experiment: Pharmacokinetics following oral administration in the rat; format: in vivo; details: male, rat, plasma, po, 3 mg/kg, rat, 3 mg/kg p.o, mean, summary without unit (Table 12); read-out: AUCinf (mean)
# cutoff 8000 ng·h/mL applies to AUC(0-inf); >= gives Satisfied, < gives Not satisfied

Cc1c(Cc2ccc(S(C)(=O)=O)cc2)c2cc(F)ccc2n1CC(=O)O [Compound B, reference compound]
Not satisfied
Cc1c(Cc2ccccc2S(=O)(=O)c2ccc(F)cc2)c2cc(F)ccc2n1CC(=O)O
Satisfied

Data request: Please tell me: is the compound `Cc1c(Cc2ccccc2S(=O)(=O)c2ccc(Cl)cc2)c2cc(F)ccc2n1CC(=O)O` at or over 8000 ng·h/mL in terms of AUC(0-inf)?
Data returned: Satisfied

Data request: Entry `Cc1c(Cc2ccccc2S(=O)(=O)c2ccccc2)c2cc(F)ccc2n1CC(=O)O` : is its AUC(0-inf) no less than 8000 ng·h/mL?
Data returned: Satisfied

---

Test: Pharmacokinetics following oral administration in the rat
Format: in vivo
Conditions: male, rat, plasma, po, 3 mg/kg, rat, 3 mg/kg oral, 4 h, individual male animals; read-out: Concentration in Blood
Description: Investigation of Pharmacokinetics of Compounds of General Formula (I) Following Oral Administration in the Rat Rats were weighed on the day of dosing. The test material was prepared as a 0.3 mg/mL suspension in 1% carboxy-methyl-cellulose (CMC). Three groups of 3 rats were dosed as follows: […] The plasma samples were analysed for test material concentrations at BioDynamics using an LC-MS/MS method developed at BioDynamics.
I'd be grateful if you could share measured concentration at 4 h for these entries.
Numbers only, in ng/mL.

Dear colleague, could you send me concentration at 4 h for each of the items below? Thanks.
1. Cc1c(Cc2ccc3ccccc3n2)c2cc(F)ccc2n1CC(=O)O [Compound A, reference compound]
2. Cc1c(Cc2ccccc2S(=O)(=O)c2ccc(Cl)cc2)c2cc(F)ccc2n1CC(=O)O

Data returned:
[923, 1130]

Below are some compounds; for each one, tell me its concentration at 4 h.
1. Cc1c(Cc2ccccc2S(=O)(=O)c2ccccc2)c2cc(F)ccc2n1CC(=O)O
2. Cc1c(Cc2ccccc2S(=O)(=O)c2ccc(F)cc2)c2cc(F)ccc2n1CC(=O)O

Data returned:
1. 1890
2. 3130

---

assay: Pharmacokinetics following oral administration in the rat; assay type: in vivo; conditions: male, rat, plasma, po, 3 mg/kg, rat, 3 mg/kg oral, 2 h, mean; read-out: Concentration in Blood, Mean
Decide using concentration at 2 h alone. Strictly below 1000 ng/mL: criterion met. Equal to or above 1000 ng/mL: criterion not met.

Cc1c(Cc2ccc3ccccc3n2)c2cc(F)ccc2n1CC(=O)O [Compound A, reference compound]
criterion not met
Cc1c(Cc2ccccc2S(=O)(=O)c2ccccc2)c2cc(F)ccc2n1CC(=O)O
criterion not met
Cc1c(Cc2ccccc2S(=O)(=O)c2ccc(F)cc2)c2cc(F)ccc2n1CC(=O)O
criterion not met
Cc1c(Cc2ccc(S(C)(=O)=O)cc2)c2cc(F)ccc2n1CC(=O)O [Compound B, reference compound]
criterion met

# input for lookup
Data request: Check if concentration at 2 h falls below 1000 ng/mL for `Cc1c(Cc2ccccc2S(=O)(=O)c2ccc(Cl)cc2)c2cc(F)ccc2n1CC(=O)O` .
Data returned: criterion not met

---

assay: Pharmacokinetics following oral administration in the rat; type: in vivo; details: male, rat, plasma, po, 3 mg/kg, rat, 3 mg/kg oral, 12 h, individual male animals; read-out: Concentration in Blood
readout: concentration at 12 h (ng/mL)
One number for each entry, in ng/mL.

concentration at 12 h reading for `Cc1c(Cc2ccccc2S(=O)(=O)c2ccccc2)c2cc(F)ccc2n1CC(=O)O` : 455

---

assay: Pharmacokinetics following oral administration in the rat; assay type: in vivo; conditions: male, rat, plasma, po, 3 mg/kg, rat, 3 mg/kg oral, 6 h, individual male animals; read-out: Concentration in Blood
readout: concentration at 6 h (ng/mL)
Answers are plain numbers, in ng/mL.

Cc1c(Cc2ccc3ccccc3n2)c2cc(F)ccc2n1CC(=O)O [Compound A, reference compound]
404

Turning now to a further compound:
GET /value?item= `Cc1c(Cc2ccccc2S(=O)(=O)c2ccc(F)cc2)c2cc(F)ccc2n1CC(=O)O` &field=concentration at 6 h returns 1330

---

test: Pharmacokinetics following oral administration in the rat; format: in vivo; settings: male, rat, plasma, po, 3 mg/kg, rat, 3 mg/kg oral, 8 h, individual male animals; read-out: Concentration in Blood
readout: concentration at 8 h
Quick note: number first, unit second.

So, Cc1c(Cc2ccccc2S(=O)(=O)c2ccc(F)cc2)c2cc(F)ccc2n1CC(=O)O [Compound 3] ? Its concentration at 8 h was 1160 ng/mL

---

Would you kindly list Potency in inhibition of DK-PGD2-induced blood eosinophilia for each of these molecules?
system: DK-PGD2-induced blood eosinophilia; experiment: Inhibition of DK-PGD2-induced blood eosinophilia in rats; assay type: in vivo, rat; details: female rats, oral dosing 30 min before 10 μg DK-PGD2 intracardiac; ED50 from dose-response curve; the values are: ED50
Give bare numbers, in mg/kg.

Use the examples below as a reference point.
Cc1c(Cc2ccccc2S(=O)(=O)c2ccc(F)cc2)c2cc(F)ccc2n1CC(=O)O
0.01
Cc1c(Cc2ccc3ccccc3n2)c2cc(F)ccc2n1CC(=O)O [Compound A, reference compound]
37
Cc1c(Cc2ccccc2S(=O)(=O)c2ccc(Cl)cc2)c2cc(F)ccc2n1CC(=O)O
0.01

// each listed molecule needs a value for Potency in inhibition of DK-PGD2-induced blood eosinophilia
1. Cc1c(Cc2ccc(S(C)(=O)=O)cc2)c2cc(F)ccc2n1CC(=O)O [Compound B, reference compound]
2. Cc1c(Cc2ccccc2S(=O)(=O)c2ccccc2)c2cc(F)ccc2n1CC(=O)O

Data returned:
[17, 0.0025]

---

test: Pharmacokinetics following oral administration in the rat; type: in vivo; details: male, rat, plasma, po, 3 mg/kg, rat, 3 mg/kg oral, 8 h, mean; read-out: Concentration in Blood, Mean
Binary call on concentration at 8 h with cut-off 400 ng/mL: strictly below means true (1), and equality or higher means false (0).

Data request: Lab log: compare recorded concentration at 8 h with 400 ng/mL; is it strictly lower for Cc1c(Cc2ccc3ccccc3n2)c2cc(F)ccc2n1CC(=O)O [Compound A, reference compound] ?
Data returned: true (1)

Data request: Please indicate whether the reported concentration at 8 h of `Cc1c(Cc2ccccc2S(=O)(=O)c2ccccc2)c2cc(F)ccc2n1CC(=O)O` is strictly below 400 ng/mL.
Data returned: false (0)

Data request: Consider the molecule `Cc1c(Cc2ccccc2S(=O)(=O)c2ccc(Cl)cc2)c2cc(F)ccc2n1CC(=O)O` . Is its concentration at 8 h strictly less than 400 ng/mL?
Data returned: false (0)

Data request: Here's an entry: `Cc1c(Cc2ccccc2S(=O)(=O)c2ccc(F)cc2)c2cc(F)ccc2n1CC(=O)O` . Is its concentration at 8 h below 400 ng/mL?
Data returned: false (0)

Data request: Item Cc1c(Cc2ccc(S(C)(=O)=O)cc2)c2cc(F)ccc2n1CC(=O)O [Compound B, reference compound] : concentration at 8 h beneath 400 ng/mL, strictly?
Data returned: true (1)

---

For each record, write down the corresponding half-life.
experiment: Pharmacokinetics following oral administration in the rat; type: in vivo; conditions: male, rat, plasma, po, 3 mg/kg, rat, 3 mg/kg p.o, mean; read-out: T½, Mean (converted)
Numbers only, in h.

Examples from the recorded data:
Cc1c(Cc2ccccc2S(=O)(=O)c2ccc(F)cc2)c2cc(F)ccc2n1CC(=O)O
2.8
Cc1c(Cc2ccc3ccccc3n2)c2cc(F)ccc2n1CC(=O)O [Compound A, reference compound]
4.8

Sample `Cc1c(Cc2ccccc2S(=O)(=O)c2ccc(Cl)cc2)c2cc(F)ccc2n1CC(=O)O` ; half-life observed: 3.7
